# assay-target: Neutrophil elastase (Homo sapiens) (UniProt P08246)
# Sequence (P08246 whole entry): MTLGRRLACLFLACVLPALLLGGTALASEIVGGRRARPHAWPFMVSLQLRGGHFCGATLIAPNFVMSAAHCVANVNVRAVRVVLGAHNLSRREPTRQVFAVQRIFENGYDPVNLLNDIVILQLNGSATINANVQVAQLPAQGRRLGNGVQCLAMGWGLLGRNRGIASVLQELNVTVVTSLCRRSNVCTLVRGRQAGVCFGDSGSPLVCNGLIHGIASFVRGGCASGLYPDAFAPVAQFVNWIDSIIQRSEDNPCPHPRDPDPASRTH
# assay-summary: Inhibitory activity against Human leukocyte elastase as kinetic constant for inhibition (inactivation)
Collected log10 K inact values appear next to each entry.
Kindly note that the scale is log10 and the underlying K inact is in M⁻¹ s⁻¹.

Illustrative cases are given below, each with its answer.
# molecule, assay-target, log10 K inact
measured = [
    ("O=C1c2ccccc2S(=O)(=O)N1COP(=O)(OCc1ccccc1)OCc1ccccc1", "Neutrophil elastase (Homo sapiens) (UniProt P08246)", 3.61),
    ("CCOP(=O)(OCC)OCN1C(=O)c2c(C(C)CC)cccc2S1(=O)=O (stereo unspecified)", "Neutrophil elastase (Homo sapiens) (UniProt P08246)", 5.90),
    ("CCOP(=O)(OCC)OCN1C(=O)c2c(C(C)C)cc(O)cc2S1(=O)=O", "Neutrophil elastase (Homo sapiens) (UniProt P08246)", 3.52),
    ("CCCCOP(=O)(OCCCC)OCN1C(=O)c2ccccc2S1(=O)=O", "Neutrophil elastase (Homo sapiens) (UniProt P08246)", 3.68),
    ("CCCCP(=O)(CCCC)OCN1C(=O)c2ccccc2S1(=O)=O", "Neutrophil elastase (Homo sapiens) (UniProt P08246)", 3.36),
]

### Prompt Look up Neutrophil elastase (Homo sapiens) (UniProt P08246) data: log10 K inact of CCOP(=O)(OCC)OCN1C(=O)c2ccccc2S1(=O)=O , then report it.
### Response 3.04
